# target.system: hSTING R232 c-terminal domain (Homo sapiens, UniProt Q86WV6, H232R)
# Construct: Purified hSTING R232 (aa154-342)
# Sequence (Q86WV6 154-342 H232R): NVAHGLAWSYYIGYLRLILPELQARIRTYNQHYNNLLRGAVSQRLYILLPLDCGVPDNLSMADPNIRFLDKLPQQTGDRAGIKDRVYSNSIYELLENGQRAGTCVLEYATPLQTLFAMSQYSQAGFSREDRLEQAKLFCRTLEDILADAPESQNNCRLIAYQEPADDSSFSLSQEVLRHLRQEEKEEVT
# assay.protocol: Thermal shift assay for measuring the relative binding affinity to hSTING R232 c-terminal domain
# test.context: purified hSTING R232 (aa154-342), SYPRO Orange, Tm minus mean Tm of negative control
recorded.metric: ΔTm at 100 µM (°C)
// units = °C; emit number, no label

Example results:
{"compound": "CCn1nc(C)cc1C(=O)Nc1nc2cc(C(N)=O)cc3c2n1[C@@H](C/C=C\\C[C@H]1COc2cc(C(N)=O)cc4nc(NC(=O)c5cc(C)nn5CC)n1c24)CO3", "target.system": "hSTING R232 c-terminal domain (Homo sapiens, UniProt Q86WV6, H232R)", "observed.value": 12.2}
{"compound": "CCn1nc(C)cc1C(=O)Nc1nc2cc(C(N)=O)cc3c2n1C(CC=CCC1CCCOc2cc(C(N)=O)cc4nc(NC(=O)c5cc(C)nn5CC)n1c24)CCCO3 (stereo not drawn)", "target.system": "hSTING R232 c-terminal domain (Homo sapiens, UniProt Q86WV6, H232R)", "observed.value": 6.2}
{"compound": "CCn1nc(C)cc1C(=O)Nc1nc2cc(C(N)=O)cc3c2n1[C@@H](C/C=C/C[C@H]1COc2cc(C(N)=O)cc4nc(NC(=O)c5cc(C)nn5CC)n1c24)CO3", "target.system": "hSTING R232 c-terminal domain (Homo sapiens, UniProt Q86WV6, H232R)", "observed.value": 14.6}
{"compound": "CCn1nc(C)cc1C(=O)Nc1nc2cc(C(N)=O)cc3c2n1[C@@H](C/C=C/C[C@H]1COc2cc(C(N)=O)cc4nc(NC(=O)C(C)(C)C)n1c24)CO3", "target.system": "hSTING R232 c-terminal domain (Homo sapiens, UniProt Q86WV6, H232R)", "observed.value": 7.5}
{"compound": "CCn1nc(C)cc1C(=O)Nc1nc2cc(C(N)=O)cc3c2n1[C@@H](CCCC[C@H]1COc2cc(C(N)=O)cc4nc(NC(=O)c5cc(C)nn5CC)n1c24)CO3", "target.system": "hSTING R232 c-terminal domain (Homo sapiens, UniProt Q86WV6, H232R)", "observed.value": 9.1}

INPUT: Supply ΔTm at 100 µM value. Item: CCn1nc(C)cc1C(=O)Nc1nc2cc(C(=O)O)cc3c2n1[C@@H](C/C=C/C[C@H]1COc2cc(C(=O)O)cc4nc(NC(=O)c5cc(C)nn5CC)n1c24)CO3
OUTPUT: 5.9
